biological target: MDM2 (Homo sapiens)
Sequence (Q00987 whole entry): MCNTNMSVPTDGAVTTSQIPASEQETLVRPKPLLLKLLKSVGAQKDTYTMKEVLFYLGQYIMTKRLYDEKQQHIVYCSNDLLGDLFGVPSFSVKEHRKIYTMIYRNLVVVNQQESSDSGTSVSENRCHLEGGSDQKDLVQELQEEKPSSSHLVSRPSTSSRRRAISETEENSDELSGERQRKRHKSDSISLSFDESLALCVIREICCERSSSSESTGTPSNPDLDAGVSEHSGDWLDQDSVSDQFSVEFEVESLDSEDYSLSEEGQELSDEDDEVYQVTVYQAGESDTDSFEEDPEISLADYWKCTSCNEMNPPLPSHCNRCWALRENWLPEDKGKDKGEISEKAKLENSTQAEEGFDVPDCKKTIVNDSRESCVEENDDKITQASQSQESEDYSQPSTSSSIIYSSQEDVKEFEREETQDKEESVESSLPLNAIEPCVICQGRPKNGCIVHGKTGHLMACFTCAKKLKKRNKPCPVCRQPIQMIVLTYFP
pIC50: −log10 of the molar value.
Please use fulfilled whenever pIC50 is not below 8, and not fulfilled whenever it is.

CCOc1cc(OC)c(-c2nc3c(n2C(C)C)[C@@]2(C(=O)Nc4cc(Cl)ccc42)N(c2cc(Cl)ccc2C)C3=O)cn1 :: fulfilled

Given the entry COc1nc(N(C)C)ncc1-c1nc2c(n1C(C)C)[C@@]1(C(=O)Nc3cc(Cl)ccc31)N(c1cc(Cl)cnc1C)C2=O , answer whether its pIC50 meets or surpasses 8.
fulfilled

Given the entry COc1cc(C(F)(F)F)ccc1-c1nc2c(n1C(C)C)[C@]1(C(=O)Nc3cc(Cl)ccc31)N(c1cc(Cl)cnc1C)C2=O , answer whether its pIC50 meets or surpasses 8.
not fulfilled

Given the entry COc1c(F)cccc1-c1nc2c(n1C(C)C)[C@]1(C(=O)Nc3cc(Cl)ccc31)N(c1cc(Cl)ccc1C)C2=O , answer whether its pIC50 meets or surpasses 8.
not fulfilled

Given the entry COc1cc(OC2CC2)ncc1-c1nc2c(n1C(C)C)[C@@]1(C(=O)Nc3cc(Cl)ccc31)N(c1cc(Cl)ccc1C)C2=O , answer whether its pIC50 meets or surpasses 8.
fulfilled

Given the entry CCOc1ccc(-c2nc3c(n2C(C)C)[C@]2(C(=O)Nc4cc(Cl)ccc42)N(c2cc(Cl)ccc2C)C3=O)c(OC)n1 , answer whether its pIC50 meets or surpasses 8.
not fulfilled

Given the entry COc1ncc(-c2nc3c(n2C(C)C)[C@@]2(C(=O)Nc4cc(Cl)ccc42)N(c2ccc(C#N)c(Cl)c2)C3=O)c(OC)n1 , answer whether its pIC50 meets or surpasses 8.
fulfilled

Entry source: patent US11339171B2
